experiment_notes: NCI Yeast Anticancer Drug Screen. Data for the cln2 rad14 strain (AID 165);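 also: 0% = growth equal to vehicle treated cultures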
measurement_setup: S. cerevisiae cln2 rad14 strain, at 50.0 µM, hits give high values
Compounds without any hit were thinned out: in the full panel of roughly 79,000, 15% have a hit.
For each of the molecules below, state its growth inhibition.
// units = %; emit number, no label

Query string: Suppose we examine the molecule NC(N)=NNC(=S)S ; what growth inhibition value has been reported?
Result string: 5.1

Query string: Suppose we examine the molecule COc1c(OC(C)=O)cc(Cl)c(C=O)c1[N+](=O)[O-] ; what growth inhibition value has been reported?
Result string: 5.8

Query string: Suppose we examine the molecule N#CC1CCCC(c2ccccc2)(C2CCCCC2)C1=O (centres undefined) ; what growth inhibition value has been reported?
Result string: 26.4

Query string: Suppose we examine the molecule CCCCOCN1COCN(COCCCC)C1=O ; what growth inhibition value has been reported?
Result string: 6.95

Query string: Suppose we examine the molecule O=CNNC(=O)Nc1cccc2ccccc12 ; what growth inhibition value has been reported?
Result string: -5.75

Query string: Suppose we examine the molecule N#Cc1nc(CC(=O)c2ccncc2)c(CC(=O)c2ccncc2)nc1C#N ; what growth inhibition value has been reported?
Result string: 13.5

Query string: Suppose we examine the molecule O=C(Nc1ccc(C2=NCCN2)cc1)c1ccc(C(=O)Nc2ccc(C3=NCCN3)cc2)cc1 ; what growth inhibition value has been reported?
Result string: 2

Query string: Suppose we examine the molecule O=S(=O)(c1ccccc1)N1CCCCN(S(=O)(=O)c2ccccc2)COC1 ; what growth inhibition value has been reported?
Result string: -9.85

Query string: Suppose we examine the molecule CCCc1ccccc1[N+](=O)[O-] ; what growth inhibition value has been reported?
Result string: -4.35

Query string: Suppose we examine the molecule CCc1cccc(NC(=O)c2cc(/C=C/c3ccccc3)[nH]c(=S)n2)c1 ; what growth inhibition value has been reported?
Result string: -1.85

Query string: Suppose we examine the molecule COc1cc(NCCC(=O)O)c2ncccc2c1 ; what growth inhibition value has been reported?
Result string: -18.8

Query string: Suppose we examine the molecule CC(C)(C)c1cc(C(c2ccc3c(c2)OCO3)N2CCOCC2)c(O)c(C(C)(C)C)c1 (centres undefined) ; what growth inhibition value has been reported?
Result string: 14.8

Query string: Suppose we examine the molecule CC1CC(c2ccccc2)(c2ccccc2)CN1C (centres undefined) ; what growth inhibition value has been reported?
Result string: -45.3

Query string: Suppose we examine the molecule O=C(Nc1ccc(Cl)cc1)OCC#CCOC(=O)Nc1ccc(Cl)cc1 ; what growth inhibition value has been reported?
Result string: -2.05

Query string: Suppose we examine the molecule c1ccc2c(c1)NC(SSC1Nc3ccccc3S1)S2 (centres undefined) ; what growth inhibition value has been reported?
Result string: -0.55

Query string: Suppose we examine the molecule Cc1ccc2ccc(C)nc2c1 ; what growth inhibition value has been reported?
Result string: 7.15

Query string: Suppose we examine the molecule CCOC(=O)CCCCCCC(=O)OCC ; what growth inhibition value has been reported?
Result string: 1.95

Query string: Suppose we examine the molecule CCOC(=O)C1=C(C)OC(=O)CC1C (centres undefined) ; what growth inhibition value has been reported?
Result string: 9.05

Query string: Suppose we examine the molecule CC1CN(Cc2ccccc2)C(=O)C1=O (centres undefined) ; what growth inhibition value has been reported?
Result string: -12.7

Query string: Suppose we examine the molecule S=C(SSSC(=S)N(C1CCCCC1)C1CCCCC1)N(C1CCCCC1)C1CCCCC1 ; what growth inhibition value has been reported?
Result string: 1.45

Query string: Suppose we examine the molecule CCCCCCCCCCCCCCCCC(C)=O ; what growth inhibition value has been reported?
Result string: -16.6

Query string: Suppose we examine the molecule CC1=CCCCC1 ; what growth inhibition value has been reported?
Result string: -5.1

Query string: Suppose we examine the molecule NNc1nnc(Cl)c2c1ncn2Cc1ccccc1 ; what growth inhibition value has been reported?
Result string: -21.4

Query string: Suppose we examine the molecule O=C1c2ccccc2-c2nc(-c3cccs3)cc3c2c1nc1ccccc13 ; what growth inhibition value has been reported?
Result string: 21.9

Query string: Suppose we examine the molecule O=S1(=O)c2ccccc2N(O)C2=NCCN21 ; what growth inhibition value has been reported?
Result string: -6.35

Query string: Suppose we examine the molecule c1cc(OCC2CO2)ccc1OCC1CO1 (centres undefined) ; what growth inhibition value has been reported?
Result string: -24.9

Query string: Suppose we examine the molecule COc1cc(NS(=O)(=O)c2ccc(C)cc2)c2nccnc2c1 ; what growth inhibition value has been reported?
Result string: -3.35

Query string: Suppose we examine the molecule COC(=O)C(=O)C(C(=O)C(=O)Nc1ccccc1C(N)=O)c1nc2ccc(C(=O)c3ccccc3)cc2[nH]c1=O (centres undefined) ; what growth inhibition value has been reported?
Result string: -17.1

Query string: Suppose we examine the molecule [N-]=[N+]=Nc1ccccc1C(=O)NCCNC(=O)c1ccccc1N=[N+]=[N-] ; what growth inhibition value has been reported?
Result string: 6.85

Query string: Suppose we examine the molecule Cc1nc2ccc(S(=O)(=O)Nc3ccc(Cl)cc3)cc2c(=O)n1NC(=O)CNc1ccc(Cl)cc1 ; what growth inhibition value has been reported?
Result string: 15.6

Query string: Suppose we examine the molecule O=[N+]([O-])c1ccc(N/N=C2/CC(c3ccccc3)C(c3ccccc3)=C2Cl)c([N+](=O)[O-])c1 (centres undefined) ; what growth inhibition value has been reported?
Result string: 24.4

Query string: Suppose we examine the molecule NC1=NC(c2ccccc2O)CC(=O)N1 (centres undefined) ; what growth inhibition value has been reported?
Result string: -32.6

Query string: Suppose we examine the molecule COC(=O)c1n[nH]n(Cc2cccs2)c1=O (tested in a mixture with another compound) ; what growth inhibition value has been reported?
Result string: -0.85

Query string: Suppose we examine the molecule CC(C)=CC(C)(O)c1nc2ccccc2s1 (centres undefined) ; what growth inhibition value has been reported?
Result string: -6.95

Query string: Suppose we examine the molecule COC(=O)c1ccc(C(=O)OC)c2nn3c(N)nnc3nc12 ; what growth inhibition value has been reported?
Result string: -12.4

Query string: Suppose we examine the molecule CCOC(CCc1c(C)nc[nH]c1=O)OCC ; what growth inhibition value has been reported?
Result string: -35.4

Query string: Suppose we examine the molecule CCOC(=O)/C=C/c1ccc(F)cc1 ; what growth inhibition value has been reported?
Result string: 11.2

Query string: Suppose we examine the molecule C/C(=C\c1ccccc1)C(=O)c1ccccc1 ; what growth inhibition value has been reported?
Result string: -3.15

Query string: Suppose we examine the molecule CN(CC(=O)c1ccc(Cl)cc1)Cc1cccc2ccccc12 ; what growth inhibition value has been reported?
Result string: 11.7

Query string: Suppose we examine the molecule CNc1ncnc2c1ncn2C ; what growth inhibition value has been reported?
Result string: -17.1

Query string: Suppose we examine the molecule O=C([O-])C[n+]1ccccc1/C=C/c1ccccc1 ; what growth inhibition value has been reported?
Result string: -15.2

Query string: Suppose we examine the molecule Cn1ncc2c(=O)[nH]c(NN)nc21 ; what growth inhibition value has been reported?
Result string: -17.8

Query string: Suppose we examine the molecule Cc1nnc(-c2cn(C3OC(CO)C(O)C3O)c3ncnc(N)c23)nc1C (centres undefined) ; what growth inhibition value has been reported?
Result string: 0

Query string: Suppose we examine the molecule Oc1ccc(Cl)cc1-c1cc(-c2ccccc2)nc(=S)[nH]1 ; what growth inhibition value has been reported?
Result string: -0.2

Query string: Suppose we examine the molecule CCN=C(N(CC)CC)N(CC)CC ; what growth inhibition value has been reported?
Result string: -24.4

Query string: Suppose we examine the molecule C/C(CCn1[nH]c(=O)ccc1=O)=N\OCCCc1ccccc1 ; what growth inhibition value has been reported?
Result string: 16.3

Query string: Suppose we examine the molecule C(=C\c1cc(CCc2nc3ccccc3[nH]2)[nH]n1)/c1ccccc1 ; what growth inhibition value has been reported?
Result string: 22.6

Query string: Suppose we examine the molecule CN1C/C(=C/c2ccc(N(C)C)cc2)C(=O)/C(=C/c2ccc(N(C)C)cc2)C1 ; what growth inhibition value has been reported?
Result string: -5.3

Query string: Suppose we examine the molecule COc1ccc2c(-c3cc4ccccc4o3)cc(=O)oc2c1 ; what growth inhibition value has been reported?
Result string: 2
